Cited source for all entries: paper PMC8533149

Below, each entry is listed with its recorded LTR-III ΔTm.
- Test system: HIV-1 LTR-III G-quadruplex (FAM/TAMRA-labeled LTR-III)
- TEST NAME: FRET melting assay, LTR-III G4
- Format: binding
- EXPERIMENTAL SETUP: Table S1 primary screening, ligand:ODN 50:1, singlicate
Report as a plain number; the unit °C is understood.

The following molecules have reported results that may help.
| MOLECULE | SYSTEM UNDER TEST | LTR-III ΔTm (°C) |
| --- | --- | --- |
| CCN(CC)c1ccc(C=C2N=C(C(C)=O)N(C)C2=O)cc1 | HIV-1 LTR-III G-quadruplex (FAM/TAMRA-labeled LTR-III) | -0.4 |
| COc1c(O)ccc(/C=C2N=C(/C=C/c3ccncc3)N(C)C\2=O)c1OC | HIV-1 LTR-III G-quadruplex (FAM/TAMRA-labeled LTR-III) | 7.1 |
| Cc1ccc(C(O)=CC2=NC(=Cc3ccc(O)cc3)C(=O)N2C)cc1 | HIV-1 LTR-III G-quadruplex (FAM/TAMRA-labeled LTR-III) | -0.1 |

Please find the next molecule below.
Measured LTR-III ΔTm, `CCCCN(CCCC)c1ccc(C=C2N=C(C)N(C)C2=O)cc1` : 0.2

====

- Test system: HIV-1 LTR-III G-quadruplex (FAM/TAMRA-labeled LTR-III)
- TEST NAME: FRET melting assay, LTR-III G4
- Type: binding
- EXPERIMENTAL SETUP: Table S1 primary screening, ligand:ODN 50:1, singlicate
Use Satisfied when the recorded LTR-III ΔTm is no lower than -0.1 °C; use Not satisfied when it is lower.

I'd appreciate it if you could say whether COC(=O)c1ccc(C=C2N=C(C)N(C)C2=O)cc1 [SA 400] has LTR-III ΔTm at least equal to -0.1 °C.
Satisfied

I'd appreciate it if you could say whether CC1=NC(=Cc2ccc(N3CCCCC3)cc2)C(=O)N1C [N 665] has LTR-III ΔTm at least equal to -0.1 °C.
Not satisfied

I'd appreciate it if you could say whether CNC(=O)c1onc(C(=O)OC(C)C)c1-c1ccc(N(C)C)cc1 [SA 332.1] has LTR-III ΔTm at least equal to -0.1 °C.
Not satisfied

I'd appreciate it if you could say whether COc1cc(O)ccc1C=C1N=C(C(=Cc2ccncc2)c2ccccc2)N(C)C1=O [N 1142] has LTR-III ΔTm at least equal to -0.1 °C.
Satisfied

====

- Test system: HIV-1 LTR-III G-quadruplex (FAM/TAMRA-labeled LTR-III)
- TEST NAME: FRET melting assay, LTR-III G4
- Type: binding
- EXPERIMENTAL SETUP: Table S1 primary screening, ligand:ODN 50:1, singlicate
Just a reminder that ties go to not fulfilled: only LTR-III ΔTm strictly below 0.2 °C counts as fulfilled.

Use these answered entries as a reference point.
| COMPOUND | LABEL VALUE |
| --- | --- |
| CCC1=NC(=Cc2cc(C(C)(C)C)c(O)c(C(C)(C)C)c2)C(=O)N1C [AL 135.2] | fulfilled |
| COc1ccc(C=C2N=C(C=C(OC(=O)c3ccc(C)cc3)c3ccc(C)cc3)N(C)C2=O)cc1 [SV 18] | not fulfilled |

Consider COc1cc(O)ccc1/C=C1N=C(/C=C/c2ccncc2)N(C)C\1=O [N 871B] . Does its LTR-III ΔTm lie strictly below 0.2 °C?
not fulfilled

Consider COc1cc(O)ccc1C=C1N=C(C=Cc2ccccn2)N(C)C1=O [M 2766] . Does its LTR-III ΔTm lie strictly below 0.2 °C?
not fulfilled

Consider COc1ccc2cc(C(c3ccc(C)cc3)C(c3ccc(C)cc3)c3ccc4cc(OC)ccc4c3)ccc2c1 (stereo not drawn) [M 1362.2] . Does its LTR-III ΔTm lie strictly below 0.2 °C?
fulfilled

Consider COc1ccccc1C=C1N=C(C)N(C)C1=O [M 1583.5] . Does its LTR-III ΔTm lie strictly below 0.2 °C?
fulfilled

Consider CC1=CC(C)(C)N(C)c2ccc(C=CC3=NC(=Cc4ccc5c(c4)C(C)=CC(C)(C)N5C)C(=O)N3CCCC(=O)O)cc21 [N 62] . Does its LTR-III ΔTm lie strictly below 0.2 °C?
not fulfilled

Consider CCCC1=N/C(=C\c2ccncc2)C(=O)N1C [M 2237] . Does its LTR-III ΔTm lie strictly below 0.2 °C?
fulfilled

====

- System: HIV-1 LTR-III G-quadruplex (FAM/TAMRA-labeled LTR-III)
- TEST NAME: FRET melting assay, LTR-III G4
- Assay type: binding
- EXPERIMENTAL SETUP: Table S1 primary screening, ligand:ODN 50:1, singlicate
- Procedure: To evaluate stabilizing properties of the ligands in a complex with oligodeoxyribonucleotides (ODNs) melting with fluorescence registration was used. […] Samples were analyzed using DTprime qPCR system (DNA-Technology LLC, Moscow, Russia). Fluorescence was registered by detection of FAM emission at 520 nm upon excitation at 495 nm in the temperature range of 30–95 °C with 1 °C/min gradient. […]
Below, each entry is listed with its recorded LTR-III ΔTm.
Report as a plain number; the unit °C is understood.

| COMPOUND | QUANTITATIVE READOUT |
| --- | --- |
| CC1=NC(=Cc2ccncc2)C(=O)N1C | -0.4 |

Please find the next compound below.
Measured LTR-III ΔTm, `CCN(CC)C(=O)Sc1ccc(C=C2N=C(c3ccccc3)N(C)C2=O)cc1` : 0.3

====

- Test system: HIV-1 LTR-III G-quadruplex (FAM/TAMRA-labeled LTR-III)
- TEST NAME: FRET melting assay, LTR-III G4
- Assay type: binding
- EXPERIMENTAL SETUP: Table S1 primary screening, ligand:ODN 50:1, singlicate
ASSAY METRIC: LTR-III ΔTm (°C)
Report as a plain number; the unit °C is understood.

| COMPOUND | SYSTEM UNDER TEST | UNIT TAG | QUANTITATIVE READOUT |
| --- | --- | --- | --- |
| CC1=NC(=Cc2ccc(Br)c([N+](=O)[O-])c2)C(=O)N1C [SV 52.8] | HIV-1 LTR-III G-quadruplex (FAM/TAMRA-labeled LTR-III) | °C | 0.6 |

Measured LTR-III ΔTm, COc1ccc(C=CC2=NC(=Cc3ccnc4ccccc34)C(=O)N2C)cc1 [AL 125] : 1.7

Measured LTR-III ΔTm, CNC(=O)C(=Cc1ccc(Br)cc1)NC(=O)c1ccccc1 [GR 83] : -0.8

Measured LTR-III ΔTm, COc1ccc(C=C2N=C(C)N(C)C2=O)c(OC)c1 [M 2379] : 0.1

Measured LTR-III ΔTm, CCOc1cc(C=C2N=C(C)N(C)C2=O)ccc1O [M 2486] : 0

Measured LTR-III ΔTm, CC1=NC(=Cc2cc(Br)c(O)c(Br)c2)C(=O)N1C [M 906] : -2.7

Measured LTR-III ΔTm, O=C1NC(/C=C/c2ccncc2)=NC/1=C\c1cc(F)c(O)c(F)c1 [N 863] : 0

Measured LTR-III ΔTm, CNC(=O)C(=Cc1ccc(C#N)cc1)N=[N+]=[N-] [N 830A] : -0.1

Measured LTR-III ΔTm, COc1cc(O)ccc1C=C1N=C(C)N(C)C1=O [N 865] : 0.8

Measured LTR-III ΔTm, COc1ccc(C=C2N=C(C=C(SC)c3ccccc3)N(C)C2=O)cc1 [SA 474.1] : 0

====

- TEST NAME: Cytotoxicity test
- Type: cell-based
- EXPERIMENTAL SETUP: human, MT4 cells (human T cell leukemia), Figure 7
- Protocol: Green monkey kidney (Vero, Beach, FL, USA) cell line was maintained in 2 × Eagle MEM (“Chumakov FSC R&D IBP RAS”, Russia) with 5% FBS with L-glutamine, penicillin and streptomycin. […] HIV-1 strain NL4-3 was obtained via cell transfection with pNL4-3 3 (ARP2006, NIBSC, Potters Bar, UK). MT4 cell suspensions were added to the wells with compound dilutions and DMSO control (approx. 2 × 10^4 cells per well). […] Mean and SD were calculated with OriginPro 8 (OriginLab, St. Louis, MO, USA).
Below, each entry is listed with its recorded CC50 at 9 days.
Report as a plain number; the unit µM is understood.

The following compounds have reported results that may help.
| COMPOUND | UNIT TAG | CC50 at 9 days |
| --- | --- | --- |
| O=C1/C(=C/c2cccs2)N=C(/C=C/c2ccc(O)cc2)N1CCc1ccc(O)cc1 [MID 161] | µM | 17 |
| COc1c(O)ccc(/C=C2N=C(/C=C/c3cc(Br)c(O)c(Br)c3)N(C)C\2=O)c1OC [N1199] | µM | 5 |
| COc1ccc(O)c(/C=C2N=C(/C=C/c3ccncc3)N(C)C\2=O)c1 [N 848.3] | µM | 6 |

Measured CC50 at 9 days, COc1ccc(/C=C/C2=NC(=C\c3ccc(O)cc3OC)/C(=O)N2C)cc1 [N 1052] : 7

Measured CC50 at 9 days, COc1cc(O)ccc1/C=C1N=C(/C=C/c2ccnc3ccccc23)N(C)C\1=O [ZS 331] : 1.2
